# Tested on: tubulin (colchicine site)
# procedure summary: Inhibition of [3H]colchicine binding to tubulin
# Set-up: species or system bovine
# measurement context: 5 μM compound, 37° C.
parameter measured: % CBI 5 μM, 37° C. (%)
Report the figure in % without appending any unit label.

-- ask Any idea what its % CBI 5 μM, 37° C. is? The molecule is C=CC[C@@H](CC/C(C)=C/C=C/CC/C=C\[C@@H]1CSC([C@@H]2C[C@@H]2C)=N1)OC
-- reply 87

-- ask Moving on to C=CCC(CCC(C)=CC=CCCC=CC1COC(C=Cc2ccccc2)=N1)OC (stereo not shown)
-- reply 1

-- ask Again, but for C=CC[C@@H](CC[C@@]1(C)C[C@H]1[C@H]1C[C@@H]1CC/C=C\[C@@H]1COC([C@@H]2C[C@@H]2C)=N1)OC
-- reply −8

-- ask Repeat with COc1cc(/C=N\OC/C=C/C=C(\C)CCC(O)c2cccs2)cc(OC)c1OC (stereo not shown)
-- reply 53

-- ask Further, for C=CC[C@@H](CC/C(C)=C/C=C/CC/C=C\[C@@H]1CSC(C(C)(C)C)=N1)OC ?
-- reply −35

-- ask Field entry: C=CC[C@@H](CC[C@@]1(C)C[C@H]1[C@H]1C[C@@H]1CC/C=C\[C@@H]1CSC([C@@H]2C[C@@H]2C)=N1)OC
-- reply −39

-- ask Now consider C=CC[C@@H](CC/C(C)=C/C=C/CC/C=C\c1csc(C(C)(C)C)n1)OC and answer again.
-- reply −21

-- ask And for COc1cc(C=NOCC2CC2CCC(C)c2cccs2)cc(OC)c1OC (stereo not shown) ?
-- reply −30

-- ask How about C=CC[C@@H](CC/C(C)=C/C=C/CC/C=C\c1coc(C(C)(C)C)n1)OC ?
-- reply 0

-- ask Request: C=CC[C@@H](CC/C(C)=C/C=C/CC/C=C\[C@@H]1COC(C(C)(C)C)=N1)OC
-- reply 0
